- TARGET_UNDER_TEST: recombinant DYRK1A kinase (Homo sapiens (Human), UniProt Q13627)
- METHOD_DESCRIPTION: DYRK1A kinase assay (Ser/Thr 18 peptide Z-lyte FRET)
- ASSAY_CONDITIONS: DYRK1A kinase activity, Z-lyte Ser/Thr 18 peptide, 15 μM ATP; method text calls the value IC50; read-out: EC50 (the source's name)
MEASURED_QUANTITY: pIC50
Just so you know, pIC50 here is -log10 of the concentration in molar units; reply with that number alone.

Recorded results for 3 compounds are shown here.
COc1nc(N[C@H]2C[C@](C)(C(=O)N(C)C)C2)nn2ccc(-c3ccc4nccnc4c3)c12 [Compound 339]
8.32
COc1nc(N[C@H]2CCN(CCF)C[C@H]2F)nn2ccc(-c3ccc4nccnc4c3)c12 [Compound 372]
8.39
CNC(=O)[C@]1(C)CC[C@H](Nc2nc(OC)c3c(-c4ccc5nnn(C)c5c4)ccn3n2)CC1 [Compound 225]
7.93

Form field pIC50, entry COc1nc(N[C@@H]2CCN(C)CC2(F)F)nn2ccc(-c3ccc4ncccc4c3)c12 [Compound 319] : 8.66

Consider CCN1CC[C@@H](Nc2nc(OC)c3c(-c4ccc5nnn(C)c5c4)ccn3n2)C(F)(F)C1 [Compound 627] . Its measured pIC50 is 8.41

Entry CCC(=O)N1CC[C@H](Nc2nc(OC)c3c(-c4ccc5nnn(CCF)c5c4)ccn3n2)[C@H](F)C1 [Compound 1143] , pIC50 reported as 8.74

Note to self: pIC50 recorded for COc1nc(N[C@H]2CC[C@H](C(C)(C)O)CC2)nn2ccc(-c3cnc4nccn4c3)c12 [Compound 242] was 8.36
